System: A549
Test: Antiproliferative activity against human A549 cells assessed as decreased cell division after 48 hrs
Format: functional, cell-based
Conditions: A549, 48 h
metric_name: pIC50
On this scale, pIC50 is minus log10 of a concentration expressed in M (mol/L).

Q: Give recorded pIC50 with A549 for the following molecule: Oc1ccc(-c2nnc(Nc3ccc(F)cc3)s2)c(O)c1
Ans: 4.86

----------
System: A549
Assay: Antiproliferative activity against human A549 cells at 10 uM after 96 hrs by MTT assay
Format: functional, cell-based
Settings: A549, 96 h
metric_name: pIC50
pIC50 field: float, defined as -log10 of concentration (mol/L).

Q: Entry Oc1ccc(-c2nnc(Nc3ccc(F)cc3)s2)c(O)c1 has what pIC50?
Ans: 4.64
